Tested on: cerebellar granule cells (CGC)
Measurement Context: Wistar, rat, 6 days, 0.1 μM
Where a SMILES comes first, the peptide text is derived from it. [ ]: non-standard residue; d: D form. Hyp = O=C(O)[C@@H]1C[C@@H](O)CN1
Endpoint: Viability (%)
Reply with just the number (in %).

Examples with answers:
Molecule	Viability (%)
O=C(O)[C@@H]1C[C@@H](O)CN1C(=O)[C@@H]1CCCN1 [PO, Pro-Hyp] (H-Pro-[Hyp]-OH; N-terminus and C-terminus assumed)	52.6
O=C1[C@@H]2C[C@@H](O)CN2C(=O)[C@@H]2CCCN12 [C-PO]	55.7
N[C@@H](CCC(=O)O)C(=O)N1C[C@H](O)C[C@H]1C(=O)O [EO] (H-Glu-[Hyp]-OH; N-terminus and C-terminus assumed)	52.9
C[C@H](N)C(=O)N1C[C@H](O)C[C@H]1C(=O)O [AO] (H-Ala-[Hyp]-OH; N-terminus and C-terminus assumed)	55.1
O=C(O)CC[C@@H]1NC(=O)[C@@H]2C[C@@H](O)CN2C1=O [C-EO]	51.3

(Q) May I ask what Viability (%) has been recorded for N[C@@H](CCC(=O)O)C(=O)N1C[C@H](O)C[C@H]1C(=O)NCC(=O)O [EOG, Glu-Hyp-Gly] (H-Glu-[Hyp]-Gly-OH; N-terminus and C-terminus assumed) ?
(A) 69.9

(Q) May I ask what Viability (%) has been recorded for O=C1NCC(=O)N2C[C@H](O)C[C@@H]12 [C-OG] ?
(A) 57.8

----------
Tested on: cerebellar granule cells (CGC)
Protocol Description: Evaluation Test 2: viability of primary-cultured CGC by MTT assay (differentiation promoting action)
Measurement Context: 100 μM added days 1 and 4; KCl 15 mM; MTT day 7; percent of control sample with KCl 25 mM
Where a SMILES comes first, the peptide text is derived from it. [ ]: non-standard residue; d: D form. Hyp = O=C(O)[C@@H]1C[C@@H](O)CN1
Endpoint: Viability (%)
Reply with just the number (in %).

Compound	Readout Units	Viability (%)
N[C@@H](CCC(=O)N[C@@H](CS)C(=O)NCC(=O)O)C(=O)O [Glutathione, glutathione]	%	60.0
NCC(=O)N1CCC[C@H]1C(=O)N1C[C@H](O)C[C@H]1C(=O)O [GPO] (H-Gly-Pro-[Hyp]-OH)	%	55.8
NCC(=O)N1CCC[C@H]1C(=O)O [GP] (H-Gly-Pro-OH; N-terminus and C-terminus assumed)	%	63.4

Attention now shifts to the item below.
(Q) May I ask what Viability (%) has been recorded for O=C(O)CNC(=O)[C@@H]1C[C@@H](O)CN1 [OG] (H-[Hyp]-Gly-OH) ?
(A) 72.8

----------
In this section, each of the compounds is paired with its reported Viability (%).
System: cerebellar granule cells (CGC)
Measurement Context: Wistar, rat, 6 days, 1000 μM
Where a SMILES comes first, the peptide text is derived from it. [ ]: non-standard residue; d: D form. Hyp = O=C(O)[C@@H]1C[C@@H](O)CN1
Reply with just the number (in %).

Compound	Viability (%)
O=C1NCC(=O)N2C[C@H](O)C[C@@H]12	62.7
O=C(O)[C@@H]1C[C@@H](O)CN1C(=O)[C@@H]1CCCN1 [PO, Pro-Hyp] (H-Pro-[Hyp]-OH; N-terminus and C-terminus assumed)	74.0
O=C1[C@@H]2C[C@@H](O)CN2C(=O)[C@@H]2CCCN12	68.4
O=C(O)CC[C@@H]1NC(=O)[C@@H]2C[C@@H](O)CN2C1=O	69.3
O=C1NCC(=O)N2CCC[C@@H]12	53.3
O=C1N[C@@H](Cc2cnc[nH]2)C(=O)N2CCC[C@@H]12	69.2
N[C@@H](CCC(=O)O)C(=O)N1C[C@H](O)C[C@H]1C(=O)O [EO] (H-Glu-[Hyp]-OH; N-terminus and C-terminus assumed)	86.7
N[C@@H](CCC(=O)O)C(=O)N1C[C@H](O)C[C@H]1C(=O)NCC(=O)O [EOG, Glu-Hyp-Gly] (H-Glu-[Hyp]-Gly-OH; N-terminus and C-terminus assumed)	77.7

(Q) So what Viability (%) did C[C@H](N)C(=O)N1C[C@H](O)C[C@H]1C(=O)O [AO] (H-Ala-[Hyp]-OH; N-terminus and C-terminus assumed) get with cerebellar granule cells (CGC)?
(A) 65.9
